Where these numbers come from: paper PMC4336329

target: human ether-à-go-go-related gene (hERG) potassium channel (human); assay: primary screen, population patch clamp on CHO cells stably expressing hERG; higher = less effect of the substance;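 also: peak tail current of the secondary pulse compared with the same well before compound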
Screen size: about 310,000 compounds; about 14,000 (4.5%) showed an effect of 50% or more. Effects have a minus sign here. The list comes from a sample in which strong results are over-represented; it also holds close analogues and randomly drawn compounds.
ENDPOINT NAME: hERG current change (%, negative = inhibition) at 10uM

- MOLECULE: "O=C(Nc1ccc(Cl)cc1)N1CCN(C(=O)C2CCCO2)CC1 (centres unmarked)"
  VALUE REPORTED: "14.9%"
- MOLECULE: "Cc1cc(OCC(=O)N2CCOCC2)c(C(C)C)cc1Cl"
  VALUE REPORTED: "-4.17%"
- MOLECULE: "CC(C)(C)C(=O)N1CCN(c2ccc(NC(=O)c3ccc([N+](=O)[O-])o3)cc2)CC1"
  VALUE REPORTED: "10.2%"
- MOLECULE: "O=C(O)CC(c1ccc(Cl)cc1)N1C(=O)CCC1=O (centres unmarked)"
  VALUE REPORTED: "-7.96%"
- MOLECULE: "CCc1cc(=O)oc2cc(C)cc(OC(C)C(=O)NCCN3CCOCC3)c12 (centres unmarked)"
  VALUE REPORTED: "4.16%"

====

biological target: human ether-à-go-go-related gene (hERG) potassium channel (human, UniProt Q12809); assay: primary screen, population patch clamp on CHO cells stably expressing hERG; higher = less effect of the substance;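 also: peak tail current of the secondary pulse compared with the same well before compound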
Sequence (Q12809 whole entry, looked up): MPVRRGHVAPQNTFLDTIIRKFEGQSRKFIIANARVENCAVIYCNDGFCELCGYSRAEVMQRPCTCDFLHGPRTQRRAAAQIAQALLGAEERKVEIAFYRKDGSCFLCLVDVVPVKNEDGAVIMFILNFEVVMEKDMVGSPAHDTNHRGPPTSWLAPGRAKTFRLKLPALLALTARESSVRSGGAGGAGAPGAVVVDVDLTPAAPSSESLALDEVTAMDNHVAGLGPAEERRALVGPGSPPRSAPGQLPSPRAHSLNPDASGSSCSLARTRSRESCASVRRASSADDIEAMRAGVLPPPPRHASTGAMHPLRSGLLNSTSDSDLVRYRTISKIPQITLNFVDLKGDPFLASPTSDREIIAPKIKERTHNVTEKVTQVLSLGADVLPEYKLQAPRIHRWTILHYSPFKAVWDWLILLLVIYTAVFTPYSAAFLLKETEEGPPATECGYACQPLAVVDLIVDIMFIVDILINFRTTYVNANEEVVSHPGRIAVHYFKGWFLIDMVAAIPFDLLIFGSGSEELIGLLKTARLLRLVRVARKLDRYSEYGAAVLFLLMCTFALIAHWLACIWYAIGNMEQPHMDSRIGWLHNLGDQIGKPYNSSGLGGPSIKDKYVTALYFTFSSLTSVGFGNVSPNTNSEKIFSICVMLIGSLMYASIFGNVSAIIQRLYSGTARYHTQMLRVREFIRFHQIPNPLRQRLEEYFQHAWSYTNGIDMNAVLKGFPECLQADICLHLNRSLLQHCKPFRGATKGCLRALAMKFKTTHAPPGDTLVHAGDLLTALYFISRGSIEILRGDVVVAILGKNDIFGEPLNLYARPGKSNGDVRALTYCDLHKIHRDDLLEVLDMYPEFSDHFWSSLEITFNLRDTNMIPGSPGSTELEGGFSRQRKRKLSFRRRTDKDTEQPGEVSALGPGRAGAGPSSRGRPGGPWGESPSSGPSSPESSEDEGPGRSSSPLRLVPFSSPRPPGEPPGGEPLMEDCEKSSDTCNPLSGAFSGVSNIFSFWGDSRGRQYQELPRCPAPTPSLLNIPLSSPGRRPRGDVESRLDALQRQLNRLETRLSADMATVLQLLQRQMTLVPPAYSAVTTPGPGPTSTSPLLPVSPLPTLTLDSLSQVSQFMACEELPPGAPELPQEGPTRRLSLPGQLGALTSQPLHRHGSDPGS
Out of some 310,000 compounds screened, about 14,000 (4.5%) showed an effect of 50% or more. The effect is printed as a negative number. This is one part of a sample in which strong results are shown more often than they occur.
ENDPOINT NAME: hERG current change (%, negative = inhibition) at 10uM (%)

- COMPOUND: "N=c1c2c(-c3ccccc3)c(-c3ccccc3)n(Cc3ccccc3)c2ncn1CCO"
  VALUE REPORTED: -37.6
- COMPOUND: "O=C(CCN=C1NS(=O)(=O)c2ccccc21)OCC(=O)c1ccc(F)cc1"
  VALUE REPORTED: -3.17
- COMPOUND: "CCCCn1c(=O)n(CC(=O)Nc2ccc(C)c(Cl)c2)c(=O)c2c1ncn2Cc1ccco1"
  VALUE REPORTED: -6.22
- COMPOUND: "O=C(CNC(=O)c1cccs1)OCC(=O)c1ccccc1"
  VALUE REPORTED: 8.55
- COMPOUND: "COc1cc(OC)c(-c2nc3cnccc3n2C)cc1OC"
  VALUE REPORTED: 6.5
- COMPOUND: "COc1ccc(NC(=O)Nc2ccc3nccnc3c2)cc1"
  VALUE REPORTED: 2.71
- COMPOUND: "COC(=O)c1ccccc1OCCCOc1ccc(C=O)cc1OC"
  VALUE REPORTED: -4.02
- COMPOUND: "Cc1ccc(N2CCN(c3ccc(NC(=O)CCC(=O)O)cc3)CC2)cc1"
  VALUE REPORTED: 19.6
- COMPOUND: "NC(=O)c1nsc(C(=O)N(CCCN2CCOCC2)C(C(=O)NC2CCCCC2)c2ccc(Cl)cc2)c1N (stereo not shown)"
  VALUE REPORTED: -42.8
- COMPOUND: "O=c1c2cnn(-c3ccccc3)c2ncn1Cc1ccco1"
  VALUE REPORTED: -7.57

====

target: human ether-à-go-go-related gene (hERG) potassium channel (human); test: primary screen, population patch clamp on CHO cells stably expressing hERG; higher = less effect of the substance;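 also: peak tail current of the secondary pulse compared with the same well before compound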
Screen size: about 310,000 compounds; about 14,000 (4.5%) showed an effect of 50% or more. Effects have a minus sign here. For the sample, strong results were picked, then their nearest neighbours and some compounds at random.
Measured hERG current change (%, negative = inhibition) at 10uM, listed per entry.
ENDPOINT NAME: hERG current change (%, negative = inhibition) at 10uM (%)

- COMPOUND: "O=C(c1cccc(S(=O)(=O)N2CCOCC2)c1)N(CCO)Cc1ccccc1"
  UNIT ABBREVIATION: "%"
  VALUE REPORTED: -19.8
- COMPOUND: "CC1CC2=C(C(=O)O1)C(c1ccc(Cl)cc1)Nc1ccccc1N2 (stereo not drawn)"
  UNIT ABBREVIATION: "%"
  VALUE REPORTED: -6.21
- COMPOUND: "COc1ccc(N(CC(=O)N/N=C/c2ccccc2OC)S(=O)(=O)c2ccccc2)cc1"
  UNIT ABBREVIATION: "%"
  VALUE REPORTED: 19.9
- COMPOUND: "O=C(c1cc(S(=O)(=O)N2CCOCC2)ccc1F)N(CCc1ccccc1)Cc1ccccc1"
  UNIT ABBREVIATION: "%"
  VALUE REPORTED: -4.37
- COMPOUND: "CC1CN(S(=O)(=O)c2cccc(C(=O)N(CCc3ccccc3)Cc3ccccc3)c2)CC(C)O1 (stereo not drawn)"
  UNIT ABBREVIATION: "%"
  VALUE REPORTED: -7
- COMPOUND: "COc1ccc(NC(=O)CNC(=O)Cn2ccc3ccccc3c2=O)c(OC)c1"
  UNIT ABBREVIATION: "%"
  VALUE REPORTED: 15
- COMPOUND: "O=C(NCc1ccccc1)c1ccc(F)c(S(=O)(=O)N2CCOCC2)c1"
  UNIT ABBREVIATION: "%"
  VALUE REPORTED: -17.4
- COMPOUND: "O=C(NCc1cccs1)c1cc(S(=O)(=O)N2CCCCC2)ccc1Cl"
  UNIT ABBREVIATION: "%"
  VALUE REPORTED: 5.07
- COMPOUND: "O=C(c1cccc(S(=O)(=O)N2CCOCC2)c1)N(CCc1ccccc1)Cc1ccccc1"
  UNIT ABBREVIATION: "%"
  VALUE REPORTED: -55.4

====

molecular target: human ether-à-go-go-related gene (hERG) potassium channel (human); assay: primary screen, population patch clamp on CHO cells stably expressing hERG; higher = less effect of the substance;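 also: peak tail current of the secondary pulse compared with the same well before compound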
The campaign covered roughly 310,000 compounds. About 14,000 (4.5%) showed an effect of 50% or more. The effect is printed as a negative number. The list comes from a sample in which strong results are over-represented; it also holds close analogues and randomly drawn compounds.
Measured hERG current change (%, negative = inhibition) at 10uM, listed per entry.
ENDPOINT NAME: hERG current change (%, negative = inhibition) at 10uM (%)

- COMPOUND: "CC(=O)/C=C(\\C)Nc1ccc(-c2cnc(-c3ccccc3)o2)cc1"
  EXPERIMENTAL SYSTEM: "human ether-à-go-go-related gene (hERG) potassium channel (human)"
  UNIT ABBREVIATION: "%"
  VALUE REPORTED: -4.59
- COMPOUND: "CCOc1ccccc1-c1nnc(SCC(=O)NC2CC3CCC2C3)n1CC (stereo not shown)"
  EXPERIMENTAL SYSTEM: "human ether-à-go-go-related gene (hERG) potassium channel (human)"
  UNIT ABBREVIATION: "%"
  VALUE REPORTED: -3.89
- COMPOUND: "CN(CC1COCCO1)C(=O)c1cc(COc2c(F)cccc2F)on1 (stereo not shown)"
  EXPERIMENTAL SYSTEM: "human ether-à-go-go-related gene (hERG) potassium channel (human)"
  UNIT ABBREVIATION: "%"
  VALUE REPORTED: 6.62
- COMPOUND: "COc1ccccc1CNC(=O)COC(=O)c1ccc(C)s1"
  EXPERIMENTAL SYSTEM: "human ether-à-go-go-related gene (hERG) potassium channel (human)"
  UNIT ABBREVIATION: "%"
  VALUE REPORTED: 3.82
- COMPOUND: "O=C(c1ccc(F)c(S(=O)(=O)N2CCOCC2)c1)N(CCc1ccccc1)Cc1ccccc1"
  EXPERIMENTAL SYSTEM: "human ether-à-go-go-related gene (hERG) potassium channel (human)"
  UNIT ABBREVIATION: "%"
  VALUE REPORTED: -68.3
- COMPOUND: "Cc1nn(-c2ccccc2)cc1/C=N/O"
  EXPERIMENTAL SYSTEM: "human ether-à-go-go-related gene (hERG) potassium channel (human)"
  UNIT ABBREVIATION: "%"
  VALUE REPORTED: 0.476
- COMPOUND: "CO[C@@]1(NC(=O)C2SC(=C(C(N)=O)C(=O)O)S2)C(=O)N2C(C(=O)O)=C(CSc3nnnn3C)CS[C@@H]21 (stereo partly shown)"
  EXPERIMENTAL SYSTEM: "human ether-à-go-go-related gene (hERG) potassium channel (human)"
  UNIT ABBREVIATION: "%"
  VALUE REPORTED: 13.6
- COMPOUND: "Cc1ccc(NC(=S)N(C)C)cc1C"
  EXPERIMENTAL SYSTEM: "human ether-à-go-go-related gene (hERG) potassium channel (human)"
  UNIT ABBREVIATION: "%"
  VALUE REPORTED: -4.6
- COMPOUND: "COc1ccc(N(C(=O)CNC(=O)c2ccco2)C(C(=O)NC2CCCCC2)c2ccco2)cc1 (stereo not shown)"
  EXPERIMENTAL SYSTEM: "human ether-à-go-go-related gene (hERG) potassium channel (human)"
  UNIT ABBREVIATION: "%"
  VALUE REPORTED: 8.58
- COMPOUND: "CC(=O)N(C)C1(c2nnnn2CCOC(=O)Nc2cccc3ccccc23)CCCC1"
  EXPERIMENTAL SYSTEM: "human ether-à-go-go-related gene (hERG) potassium channel (human)"
  UNIT ABBREVIATION: "%"
  VALUE REPORTED: 0.969
